Target: human LAIR-1-CD3ζ chimeric receptor on NFAT-GFP reporter cells (human, UniProt P20963 31-164, limits assumed)
Sequence (P20963 other isoform, or with tags, fused parts or gaps mutant limits assumed): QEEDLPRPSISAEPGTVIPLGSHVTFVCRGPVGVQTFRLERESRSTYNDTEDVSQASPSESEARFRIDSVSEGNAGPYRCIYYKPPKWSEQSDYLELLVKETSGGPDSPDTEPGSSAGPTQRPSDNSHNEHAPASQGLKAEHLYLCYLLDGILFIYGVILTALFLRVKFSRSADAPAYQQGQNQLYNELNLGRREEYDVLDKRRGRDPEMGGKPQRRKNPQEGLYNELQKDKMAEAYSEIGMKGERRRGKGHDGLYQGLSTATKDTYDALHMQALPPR
Experiment: cell-based or functional assay
readout-label: IC50 (read off the curve): % GFP+ human LAIR-1 reporter cells on coated collagen 1

Ask: What measured IC50 (read off the curve): % GFP+ human LAIR-1 reporter cells on coated collagen 1 goes with humanized anti-LAIR-1 antibody Hz47H1.v4 (antibody, human IgG1, kappa, N297G, V domains shown, Humanized 47H1 with reengineered VH CDR2 and VL CDR2) VH: EVQLVESGGGLVQPGGSLRLSCAASGFTFNINAMNWVRQAPGKGLEWVARIRTKNYNYATFYADSVKDRFTISRDDSKNSLYLQMNSLKTEDTAVYYCVRDRAGFFAYWGQGTTVTVSS VL: DIQMTQSPSSLSASVGDRVTITCLASQTIGTWLGWYQQKPGKAPKLLIYAATSLAEGVPSRFSGSGSGTDFTLTISSLQPEDFATYYCQQLYSTPLTFGGGTKVEIKR ?
Reply: ~20 pM
